Exercise: for every item that follows, state its recorded pseudovirus neutralization IC50.
# subject_of_test: SARS-CoV spike on rVSV-deltaG-Luc pseudovirus (SARS-CoV, UniProt P59594 14-1236)
# assay_name: cell-based or functional assay
Numbers only, in nM.

// worked examples, pseudovirus neutralization IC50 included
19B8 VHH-Fc (Fc fusion) QVQLVESGGGLVQAGGSLRLSCAASGRTFTNYAMGWFRQAPGKEREFVAAISWSGGGTNYADSVKGRFTISRDNAKNTVYLQMNSPKPEDTAVYYCATTLGYYGSSSRLYEYWGQGTQVTVSS :: 42
10B8 VHH-Fc (Fc fusion) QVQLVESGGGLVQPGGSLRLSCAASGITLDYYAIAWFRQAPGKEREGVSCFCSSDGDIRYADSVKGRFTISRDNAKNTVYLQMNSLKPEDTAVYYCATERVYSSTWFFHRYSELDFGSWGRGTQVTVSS :: 0.09
8E9 VHH-Fc (Fc fusion) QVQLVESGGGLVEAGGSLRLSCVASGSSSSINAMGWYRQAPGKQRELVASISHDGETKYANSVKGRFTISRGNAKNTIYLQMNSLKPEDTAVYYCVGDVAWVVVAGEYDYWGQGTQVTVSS :: 2.94

Please indicate pseudovirus neutralization IC50 recorded for 5D7 VHH-Fc (Fc fusion) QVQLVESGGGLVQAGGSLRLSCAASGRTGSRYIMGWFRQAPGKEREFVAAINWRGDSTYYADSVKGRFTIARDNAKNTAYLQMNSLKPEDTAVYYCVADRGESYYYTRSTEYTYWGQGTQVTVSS
220
